# ASSAYED_SYSTEM: Nuclear receptor subfamily 1 group I member 3 (Homo sapiens)
# Sequence (Q14994 whole entry, the tested form may be a part): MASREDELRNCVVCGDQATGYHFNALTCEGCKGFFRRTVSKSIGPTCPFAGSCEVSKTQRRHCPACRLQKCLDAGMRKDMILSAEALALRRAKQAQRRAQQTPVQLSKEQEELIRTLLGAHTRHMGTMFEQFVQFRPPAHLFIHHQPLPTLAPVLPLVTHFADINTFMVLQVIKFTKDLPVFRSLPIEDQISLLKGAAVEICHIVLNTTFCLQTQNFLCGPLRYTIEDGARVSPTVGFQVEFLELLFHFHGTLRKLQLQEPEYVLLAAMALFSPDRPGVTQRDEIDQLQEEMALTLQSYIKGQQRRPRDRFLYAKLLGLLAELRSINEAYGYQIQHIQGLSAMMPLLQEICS
# ASSAY_EXPLANATION: Inhibition of GST-tagged human CAR LBD incubated for 90 mins by TR-FRET assay
MEASUREMENT_KIND: EC50 (µM)

a = CC(C)(C)c1cnc(CSc2cnc(NC(=O)C3CCN(CC(=O)NCCOCCOCCOCCNc4cccc5c4C(=O)N(C4CCC(=O)NC4=O)C5=O)CC3)s2)o1 (configuration not stated)
b = CC(C)(C)c1cnc(CSc2cnc(NC(=O)C3CCNCC3)s2)o1
Qu. // compare measured EC50 between a and b ; output the lower one # answer = label of selected item
Ans. a
(a: 3.1 µM, b: 51.1 µM)
